assayedSystem: human cannabinoid CB2 receptor (Homo sapiens, UniProt P34972)
Construct: expressed in transfected cells; host or cells: Saccharomyces cerevisiae strain MMY23 (cassette integrated at the ura3 locus, GPD promoter)
Sequence (P34972 whole entry): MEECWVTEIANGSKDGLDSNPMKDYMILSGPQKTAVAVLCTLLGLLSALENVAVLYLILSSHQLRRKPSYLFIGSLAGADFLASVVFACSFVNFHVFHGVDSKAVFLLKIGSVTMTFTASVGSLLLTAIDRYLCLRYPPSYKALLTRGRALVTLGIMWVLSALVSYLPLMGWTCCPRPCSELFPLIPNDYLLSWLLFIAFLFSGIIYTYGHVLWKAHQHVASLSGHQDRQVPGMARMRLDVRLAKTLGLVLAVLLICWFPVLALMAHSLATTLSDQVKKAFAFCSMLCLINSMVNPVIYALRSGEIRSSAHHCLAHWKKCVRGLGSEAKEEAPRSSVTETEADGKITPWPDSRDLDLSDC
assayInfo: Cannabinoid CB2 receptor agonist activity in yeast cells (FDGlu fluorescence)
Assay type: cell-based
assayContext: agonist activity; Saccharomyces cerevisiae cells expressing the human CB2 receptor; 24 hours at 30° C.; read-out: pEC50 at the CB2 receptor (converted)
Structures can show the parent of a compound that is named as a salt.

molecule | EC50
O=S(=O)(c1ccccc1)c1cnc2c(NCc3cccnc3)cccc2c1 | < 1 µM
Cc1cc(CCNc2cccc3cc(S(=O)(=O)c4ccccc4)cnc23)ccn1 [Example E7, hydrochloride] | < 1 µM
O=S(=O)(c1ccccc1)c1cnc2c(NCCC3CCOCC3)cccc2c1 [Example E6, hydrochloride] | < 1 µM
O=S(=O)(c1ccccc1)c1cnc2c(NCCc3ccncc3)cccc2c1 [Example E5, hydrochloride] | < 1 µM
O=S(=O)(c1ccccc1)c1cnc2c(NCC3CCOCC3)cccc2c1 [Example E1] | < 1 µM
O=S(=O)(c1ccccc1)c1cnc2c(NCCN3CCOCC3)cccc2c1 [Example E2, hydrochloride] | < 10 µM

* * *

assayedSystem: human cannabinoid CB2 receptor (Homo sapiens, UniProt P34972)
Construct: expressed in transfected cells; host or cells: Saccharomyces cerevisiae strain MMY23 (cassette integrated at the ura3 locus, GPD promoter)
assayInfo: Cannabinoid CB2 receptor agonist activity in yeast cells (FDGlu fluorescence)
Format: cell-based
reportedProperty: EC50

molecule | result
O=S(=O)(c1ccc(Cl)cc1)c1cnc2c(NCC3CCOCC3)cccc2c1 [Example E3] | < 1000 nM

Numbers sourced from patent US20080249092A1.
